Tested on: MC3T3 osteoblast cells (non-tumor)
Test: Cell viability assay (MTT), dark and blue light
Format: cell-based, Murine
Details: MC3T3, blue light; read-out: GI50
quantity: GI50 (µM)
Field: numeric (µM). Do not append units.

input: Quick check: GI50 on MC3T3 osteoblast cells (non-tumor), item F[P-](F)(F)(F)(F)F.O=C(O)CC[C@H](NC(=O)N[C@@H](CCCCNC(=O)CCn1cc[n+]2[c]1[Ir-3]13([c]4ccccc4-c4c5ccccc5cc[n+]41)([c]1ccccc1-c1c4ccccc4cc[n+]13)[n+]1ccccc1-2)C(=O)O)C(=O)O ?
output: 8.3

input: Param readout = GI50; param system = MC3T3 osteoblast cells (non-tumor); param query = F[P-](F)(F)(F)(F)F.O=C(O)CC[C@H](NC(=O)N[C@@H](CCCCNC(=O)CCn1cc[n+]2[c]1[Ir-3]13([c]4cccc5ccc6ccc[n+]1c6c45)([c]1cccc4ccc5ccc[n+]3c5c14)[n+]1ccccc1-2)C(=O)O)C(=O)O ; response: value
output: 40.6

input: Given the entry F[P-](F)(F)(F)(F)F.O=C(NCCCn1cc[n+]2[c]1[Ir-3]13([c]4ccccc4-c4sc5ccccc5[n+]41)([c]1ccccc1-c1sc4ccccc4[n+]13)[n+]1ccccc1-2)[c-]1cccc1.[Fe+2].c1cc[cH-]c1 , what GI50 was observed with MC3T3 osteoblast cells (non-tumor)?
output: 5.1

input: Checklist item: GI50 tested on MC3T3 osteoblast cells (non-tumor), entry F[P-](F)(F)(F)(F)F.O=C(NCCCn1cc[n+]2[c]1[Ir-3]13([c]4c(sc5ccccc45)-c4cccc[n+]41)([c]1c(sc4ccccc14)-c1cccc[n+]13)[n+]1ccccc1-2)[c-]1cccc1.[Fe+2].c1cc[cH-]c1 , value?
output: 3.9
